testTarget: Flt3 (h) (Homo sapiens)
Sequence (P36888 27-993): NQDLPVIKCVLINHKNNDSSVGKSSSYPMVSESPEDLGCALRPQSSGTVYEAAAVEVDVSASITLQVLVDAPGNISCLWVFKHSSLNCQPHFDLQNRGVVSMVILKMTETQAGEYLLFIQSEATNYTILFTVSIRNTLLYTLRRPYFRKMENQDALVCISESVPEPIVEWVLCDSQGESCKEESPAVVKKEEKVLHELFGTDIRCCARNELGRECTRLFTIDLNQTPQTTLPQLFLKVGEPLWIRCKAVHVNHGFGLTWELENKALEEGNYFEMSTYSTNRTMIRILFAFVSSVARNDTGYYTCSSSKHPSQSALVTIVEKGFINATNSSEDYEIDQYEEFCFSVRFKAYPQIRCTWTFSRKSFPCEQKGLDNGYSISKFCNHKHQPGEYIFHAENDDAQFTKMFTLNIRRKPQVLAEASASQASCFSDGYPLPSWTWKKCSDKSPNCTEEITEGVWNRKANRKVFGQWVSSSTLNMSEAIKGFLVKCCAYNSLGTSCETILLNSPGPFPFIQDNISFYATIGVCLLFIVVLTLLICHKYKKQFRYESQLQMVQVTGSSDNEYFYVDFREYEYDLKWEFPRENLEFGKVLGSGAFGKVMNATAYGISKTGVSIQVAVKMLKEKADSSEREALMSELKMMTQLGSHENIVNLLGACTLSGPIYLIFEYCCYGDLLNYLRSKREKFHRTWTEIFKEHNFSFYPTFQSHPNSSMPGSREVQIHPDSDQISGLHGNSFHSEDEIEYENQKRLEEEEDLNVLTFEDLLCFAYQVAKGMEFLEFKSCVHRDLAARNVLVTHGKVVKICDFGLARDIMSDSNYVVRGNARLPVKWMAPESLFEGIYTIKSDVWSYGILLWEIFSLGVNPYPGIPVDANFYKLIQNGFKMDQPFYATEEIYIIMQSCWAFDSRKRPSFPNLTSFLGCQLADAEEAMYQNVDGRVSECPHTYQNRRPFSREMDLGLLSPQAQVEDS
runDescription: Flt3 human kinase assay (glass-fiber filter)
Format: biochemical
conditionInfo: test concentration of 10^−6M; read-out: C6 score (inhibition of Flt3 human)
Property: inhibition at 1 µM; scope: individual compounds

compound	inhibition at 1 µM
O=C1CCc2cccc(c2)Nc2cc(ncn2)Nc2cccc(c2)CN2CCN1CC2 [Compound 43]	30 to 60%
N#Cc1cnc2nc1Nc1cccc(c1)OCC(=O)NCCCOc1cccc(c1)N2 [Compound 25]	> 80%
O=C1CCCCNC(=O)c2cccc(c2)Nc2cc(ncn2)Nc2cccc(c2)CN1 [Compound 58]	10 to 30%
N#Cc1cnc2nc1Nc1cccc(c1)C(=O)NCCCCCOc1cccc(c1)N2 [Compound 18]	30 to 60%
N#Cc1cnc2nc1Nc1cccc(c1)OCCNC(=O)c1cccc(c1)N2 [Compound 20]	30 to 60%
CC1(C)NC(=O)Cc2ccc(Cl)cc2Nc2cc(ncn2)Nc2ccc(OCCCN3CCOCC3)c(c2)OCCNC1=O [Compound 106]	10 to 30%
O=C1NCCCCCCOc2cccc(c2)Nc2ccnc(n2)Nc2cccc1c2 [Compound 21]	60 to 80%
O=C1NCc2cccc(c2)Nc2ccnc(n2)Nc2cccc1c2 [Compound 24]	60 to 80%
N#Cc1cnc2nc1Nc1cccc(c1)OCC(=O)NCCOc1cccc(c1)N2 [Compound 27]	60 to 80%

* * *

testTarget: GSK3B (h) (Homo sapiens, UniProt P49841)
Sequence (P49841 whole entry): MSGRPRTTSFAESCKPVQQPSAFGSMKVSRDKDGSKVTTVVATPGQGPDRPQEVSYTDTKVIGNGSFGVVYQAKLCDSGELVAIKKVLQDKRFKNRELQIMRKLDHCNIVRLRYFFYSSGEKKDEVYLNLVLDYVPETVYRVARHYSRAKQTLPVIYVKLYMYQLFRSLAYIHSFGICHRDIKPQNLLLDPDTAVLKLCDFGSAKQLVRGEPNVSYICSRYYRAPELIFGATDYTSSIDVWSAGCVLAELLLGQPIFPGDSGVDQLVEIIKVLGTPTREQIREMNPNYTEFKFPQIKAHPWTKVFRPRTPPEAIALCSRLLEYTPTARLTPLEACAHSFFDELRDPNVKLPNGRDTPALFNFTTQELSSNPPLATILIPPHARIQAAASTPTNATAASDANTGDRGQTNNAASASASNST
runDescription: GSK3β human kinase assay (glass-fiber filter)
Format: biochemical
conditionInfo: test concentration of 10^−6M; read-out: C8 score (inhibition of GSK3β human)
Property: inhibition at 1 µM; scope: individual compounds

entrySmiles	testTarget	inhibition at 1 µM
CC1(C)NC(=O)Cc2ccc(Cl)cc2Nc2cc(ncn2)Nc2ccc(OCCCN3CCOCC3)c(c2)OCCNC1=O	GSK3B (h) (Homo sapiens, UniProt P49841)	10 to 30%
N#Cc1cnc2nc1Nc1cccc(c1)OCC(=O)NCCOc1cccc(c1)N2	GSK3B (h) (Homo sapiens, UniProt P49841)	30 to 60%
O=C1COc2cccc(c2)Nc2cc(ncn2)Nc2cccc(c2)CN2CCN1CC2	GSK3B (h) (Homo sapiens, UniProt P49841)	10 to 30%
COc1ccc2cc1OCCNC(=O)CNC(=O)Cc1ccc(Cl)cc1Nc1cc(ncn1)N2	GSK3B (h) (Homo sapiens, UniProt P49841)	10 to 30%

* * *

testTarget: ErbB4 (h) (Homo sapiens)
Sequence (Q15303 26-1308): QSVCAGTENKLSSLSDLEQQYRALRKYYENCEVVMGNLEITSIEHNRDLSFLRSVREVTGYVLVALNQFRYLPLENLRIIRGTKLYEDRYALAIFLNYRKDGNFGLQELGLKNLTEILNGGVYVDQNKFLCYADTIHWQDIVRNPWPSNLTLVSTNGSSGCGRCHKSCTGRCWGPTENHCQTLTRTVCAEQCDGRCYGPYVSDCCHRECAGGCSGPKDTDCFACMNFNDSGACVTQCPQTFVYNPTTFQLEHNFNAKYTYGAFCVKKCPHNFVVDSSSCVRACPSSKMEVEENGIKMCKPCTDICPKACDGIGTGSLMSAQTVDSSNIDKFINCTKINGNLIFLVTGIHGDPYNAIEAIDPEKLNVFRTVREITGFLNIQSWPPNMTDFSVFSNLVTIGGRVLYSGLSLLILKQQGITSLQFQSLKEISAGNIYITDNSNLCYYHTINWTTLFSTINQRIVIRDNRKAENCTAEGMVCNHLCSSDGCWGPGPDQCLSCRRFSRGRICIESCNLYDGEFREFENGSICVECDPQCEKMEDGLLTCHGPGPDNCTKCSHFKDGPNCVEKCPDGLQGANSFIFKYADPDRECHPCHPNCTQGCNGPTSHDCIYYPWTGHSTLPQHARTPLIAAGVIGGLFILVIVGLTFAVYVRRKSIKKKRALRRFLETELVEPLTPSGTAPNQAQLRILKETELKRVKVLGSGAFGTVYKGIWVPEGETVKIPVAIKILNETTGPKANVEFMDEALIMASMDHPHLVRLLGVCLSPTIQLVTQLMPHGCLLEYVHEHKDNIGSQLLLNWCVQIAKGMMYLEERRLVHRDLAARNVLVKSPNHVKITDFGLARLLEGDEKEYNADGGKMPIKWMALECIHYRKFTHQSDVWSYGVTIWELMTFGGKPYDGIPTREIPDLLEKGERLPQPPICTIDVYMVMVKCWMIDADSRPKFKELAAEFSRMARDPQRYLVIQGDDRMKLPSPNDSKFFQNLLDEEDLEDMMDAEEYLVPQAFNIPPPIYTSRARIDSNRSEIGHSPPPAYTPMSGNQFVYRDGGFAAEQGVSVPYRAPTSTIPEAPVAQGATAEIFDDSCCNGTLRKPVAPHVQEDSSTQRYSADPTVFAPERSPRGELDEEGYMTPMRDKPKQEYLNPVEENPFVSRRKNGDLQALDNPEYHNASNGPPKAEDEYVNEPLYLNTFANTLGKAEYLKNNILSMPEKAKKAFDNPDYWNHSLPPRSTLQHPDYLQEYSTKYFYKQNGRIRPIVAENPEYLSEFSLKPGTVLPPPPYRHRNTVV
runDescription: ErbB4 human kinase assay (filter)
Assay type: biochemical
conditionInfo: read-out: C14 ERBB 4 Filter Score
Procedure: Similarly to the above the in vitro inhibition of two other kinases, i.e. human ErbB2 and human ErbB4 was tested for some of the compounds according to the invention. In a final reaction volume of 25 μl, ErbB4 (h) (5-10 mU) is incubated with 8 mM MOPS pH 7.0, 0.2 mM EDTA, 10 mM MnCl2, 0.1 mg/ml poly(Glu, Tyr) 4:1, 10 mM MgAcetate and [γ-33P-ATP] (specific activity approx. 500 cpm/pmol, concentration as required). The reaction is initiated by the addition of the MgATP mix. […]

compound	testTarget	IC50
O=C1CN2CCN(CC2)Cc2cccc(c2)Nc2cc(ncn2)Nc2cccc(c2)CCN1	ErbB4 (h) (Homo sapiens)	< 1000 nM
CCN1CCNC(=O)COc2cccc(c2)Nc2cc(ncn2)Nc2cccc(c2)C1	ErbB4 (h) (Homo sapiens)	< 1000 nM
CC(C)CC1NC(=O)CN(C)Cc2cccc(c2)Nc2cc(ncn2)Nc2cccc(c2)CNC1=O (stereo not shown)	ErbB4 (h) (Homo sapiens)	< 1000 nM
CN(C)CCCCC1NC(=O)CN(C)Cc2cccc(c2)Nc2cc(ncn2)Nc2cccc(c2)CNC1=O (stereo not shown)	ErbB4 (h) (Homo sapiens)	1000 to 10000 nM
